Recorded values, source patent US20240018153A1.

- tested.system: EGFR (Homo sapiens (Human), UniProt P00533)
- Sequence (P00533 25-1210): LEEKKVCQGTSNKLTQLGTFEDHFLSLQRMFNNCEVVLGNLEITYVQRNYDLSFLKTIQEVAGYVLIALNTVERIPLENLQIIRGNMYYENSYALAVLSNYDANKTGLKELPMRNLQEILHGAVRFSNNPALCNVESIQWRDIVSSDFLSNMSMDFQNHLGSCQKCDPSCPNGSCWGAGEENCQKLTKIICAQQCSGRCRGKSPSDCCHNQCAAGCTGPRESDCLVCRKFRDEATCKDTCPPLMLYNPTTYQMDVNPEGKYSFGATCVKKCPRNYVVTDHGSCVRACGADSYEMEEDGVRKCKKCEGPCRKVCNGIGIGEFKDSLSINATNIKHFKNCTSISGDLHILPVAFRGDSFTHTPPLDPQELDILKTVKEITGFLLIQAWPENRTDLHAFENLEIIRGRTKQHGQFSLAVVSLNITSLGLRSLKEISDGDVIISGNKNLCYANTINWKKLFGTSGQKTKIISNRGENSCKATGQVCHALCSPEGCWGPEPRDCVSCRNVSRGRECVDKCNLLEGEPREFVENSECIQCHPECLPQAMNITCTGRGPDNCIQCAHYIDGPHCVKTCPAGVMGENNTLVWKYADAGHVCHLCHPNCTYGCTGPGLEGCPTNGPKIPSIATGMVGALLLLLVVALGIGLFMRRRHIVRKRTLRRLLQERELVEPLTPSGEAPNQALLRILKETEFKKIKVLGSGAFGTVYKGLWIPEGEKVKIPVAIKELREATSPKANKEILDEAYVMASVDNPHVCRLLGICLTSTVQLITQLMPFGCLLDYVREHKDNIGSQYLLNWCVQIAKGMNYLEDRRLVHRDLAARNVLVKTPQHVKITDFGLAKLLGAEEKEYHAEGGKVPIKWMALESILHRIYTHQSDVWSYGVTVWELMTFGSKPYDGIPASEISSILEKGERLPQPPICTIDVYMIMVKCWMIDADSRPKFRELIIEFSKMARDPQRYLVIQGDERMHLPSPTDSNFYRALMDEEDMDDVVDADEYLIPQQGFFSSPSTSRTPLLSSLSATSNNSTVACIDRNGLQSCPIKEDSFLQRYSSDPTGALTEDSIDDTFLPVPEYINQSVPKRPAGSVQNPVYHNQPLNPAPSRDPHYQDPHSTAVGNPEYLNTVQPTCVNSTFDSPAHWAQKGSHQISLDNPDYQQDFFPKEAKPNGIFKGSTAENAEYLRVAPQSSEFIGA
- procedure.details: A549 cell lysis and immunoassay, phospho-EGFR (Y1068) inhibition
- Assay type: cell-based
- Set-up: key: X: EGFR bound and autophosphoration of EGFR inhibited in cells
- experimental.parameters: A549 cells, compound concentration 10 μM
property.name: pEGFR inhibition (A549, compound concentration, 24 h)

The examples below pair each entry with its known result.
compound	observed.value
NS(=O)(=O)c1c(F)c(F)c(F)c(F)c1C(=O)NCCNc1ncnc2[nH]ccc12	X
CS(=O)(=O)c1c(F)c(F)c(F)c(F)c1CNCCNc1ncnc2[nH]ccc12	X
C[S+]([O-])c1c(F)c(F)c(F)c(F)c1C(=O)N1CCC[C@@H](n2nc(-c3ccc(Oc4ccccc4)cc3)c3c(N)ncnc32)C1 (stereo partly shown)	X
CN(CCn1nc(-c2ccc(Oc3ccccc3)cc2)c2c(N)ncnc21)C(=O)c1c(F)c(F)c(F)c(F)c1S(N)(=O)=O	X

Looking up `COCCOc1ccc(Nc2ncc(F)c(Nc3cccc(NC(=O)c4c(F)c(F)c(F)c(F)c4S(=O)(=O)N(C)C)c3)n2)cc1` , I found its pEGFR inhibition (A549, compound concentration, 24 h) recorded as X

The reported pEGFR inhibition (A549, compound concentration, 24 h) of the compound `Nc1ncnc2c1c(-c1ccc(Oc3ccccc3)cc1)nn2CCNC(=O)c1c(F)c(F)c(F)c(F)c1S(N)(=O)=O` was X

Notebook: C[S@+]([O-])c1c(F)c(F)c(F)c(F)c1C(=O)Nc1ncnc2[nH]ccc12 (racemic) , pEGFR inhibition (A549, compound concentration, 24 h) read as X

====

- tested.system: UniProt O43353
- Sequence (O43353 whole entry, species assumed): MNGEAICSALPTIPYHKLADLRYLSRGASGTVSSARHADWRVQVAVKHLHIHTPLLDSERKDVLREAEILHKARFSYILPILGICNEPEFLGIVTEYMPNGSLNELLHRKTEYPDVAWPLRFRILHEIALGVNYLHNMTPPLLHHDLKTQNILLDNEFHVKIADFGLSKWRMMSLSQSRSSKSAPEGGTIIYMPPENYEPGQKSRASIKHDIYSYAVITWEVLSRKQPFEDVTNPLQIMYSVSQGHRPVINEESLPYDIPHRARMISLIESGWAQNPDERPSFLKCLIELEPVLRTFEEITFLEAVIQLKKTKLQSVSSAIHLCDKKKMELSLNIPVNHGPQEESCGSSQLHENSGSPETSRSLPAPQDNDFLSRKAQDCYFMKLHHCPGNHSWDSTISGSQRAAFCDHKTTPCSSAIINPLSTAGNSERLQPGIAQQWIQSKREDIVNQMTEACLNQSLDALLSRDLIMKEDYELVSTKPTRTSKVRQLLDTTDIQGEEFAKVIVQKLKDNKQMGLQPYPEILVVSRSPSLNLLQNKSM
- procedure.details: In vitro RIPK2 inhibition
- Format: biochemical
- experimental.parameters: read-out: % RIPK2 Remaining activity vs DMSO (1 μM, 3 h)
# remaining activity at 1 µM listing for each entry below

query.smiles	remaining activity at 1 µM
CN(C)S(=O)(=O)c1c(F)c(F)c(F)c(F)c1C(=O)NCCCn1nc(-c2ccc(Oc3ccccc3)cc2)c2c(N)ncnc21	> 90%
CN(CCn1nc(-c2ccc(Oc3ccccc3)cc2)c2c(N)ncnc21)C(=O)c1c(F)c(F)c(F)c(F)c1S(N)(=O)=O	50 to 90%
NS(=O)(=O)c1c(F)c(F)c(F)c(F)c1C(=O)NCCNc1ncnc2[nH]ccc12	< 50%

response.value for `CN(C)S(=O)(=O)c1c(F)c(F)c(F)c(F)c1C(=O)NCCn1nc(-c2ccc(Oc3ccccc3)cc2)c2c(N)ncnc21` (field: remaining activity at 1 µM) = > 90%

Value of remaining activity at 1 µM reported for the molecule `CN(C)S(=O)(=O)c1c(F)c(F)c(F)c(F)c1C(=O)NCCNc1ncnc2[nH]ccc12` is < 50%

remaining activity at 1 µM measured on `CS(=O)(=O)c1c(F)c(F)c(F)c(F)c1C(=O)n1ccc2c(N)ncnc21` = < 50%

In plain terms, `Nc1ncnc2c1c(-c1ccc(Oc3ccccc3)cc1)nn2[C@@H]1CCCN(C(=O)c2c(F)c(F)c(F)c(F)c2S(N)(=O)=O)C1` has a documented remaining activity at 1 µM of > 90%

====

- tested.system: EGFR (Homo sapiens (Human))
- procedure.details: HTRF KinEASE-TK kinase assay, EGFR
- Assay type: biochemical
- experimental.parameters: 1 μM compound, 3 h preincubation; read-out: % EGFR Remaining activity vs DMSO (1 μM, 3 h)
property.name: remaining activity at 1 µM

molecule	property.name	observed.value
CS(=O)(=O)c1c(F)c(F)c(F)c(F)c1C(=O)Nc1cc2c(Nc3ccc(F)c(Cl)c3)ncnc2cc1O[C@H]1CCOC1 [Compound I-5]	remaining activity at 1 µM	< 50%

remaining activity at 1 µM recorded for this molecule, CS(=O)(=O)c1c(F)c(F)c(F)c(F)c1C(=O)NCCCn1nc(-c2ccc(Oc3ccccc3)cc2)c2c(N)ncnc21 [Compound I-39] , is < 50%

CS(=O)(=O)c1c(F)c(F)c(F)c(F)c1Nc1cc2c(Nc3ccc(F)c(Cl)c3)ncnc2cc1O[C@H]1CCOC1 [Compound I-2] yielded remaining activity at 1 µM of < 50%
